Molecular target: cruzain (Trypanosoma cruzi)
Construct: made in house; host or cells: Escherichia coli (strain M15)
Sequence (P25779 123-337 limits assumed): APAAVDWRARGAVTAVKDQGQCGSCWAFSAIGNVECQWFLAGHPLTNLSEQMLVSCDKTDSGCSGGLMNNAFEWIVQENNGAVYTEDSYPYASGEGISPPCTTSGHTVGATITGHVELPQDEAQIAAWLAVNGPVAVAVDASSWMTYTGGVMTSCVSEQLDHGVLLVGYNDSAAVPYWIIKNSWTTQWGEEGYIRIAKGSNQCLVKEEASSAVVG
Test: Cruzain enzyme inhibition assay (cleavage of fluorogenic substrate Z-FR-AMC)
Type: biochemical
Details: compound 100 µM; mean of three measures
# inhibition at 100 µM per record follows
Give the number; % is assumed, so skip it.

1) O=C(COc1ccc(NC(=O)CCCO)cc1)NCCc1nc2ccccc2[nH]1 :: 87
2) O=C(COc1ccc2cc(O)ccc2c1)NCCc1nc2ccccc2[nH]1 :: 90

The compound listed as `O=C(COc1ccccc1)NCCc1nc2ccccc2n1CCOCc1ccccc1` has a reported inhibition at 100 µM of 76

The compound listed as `COC(=O)c1cccc2cc(OCC(=O)NCCc3nc4ccccc4[nH]3)ccc12` has a reported inhibition at 100 µM of 92

The compound listed as `O=C(COc1cccc(NC(=O)CCCO)c1)NCCc1nc2ccccc2[nH]1` has a reported inhibition at 100 µM of 75

The compound listed as `NC(=O)Cn1c(CCNC(=O)COc2ccccc2)nc2ccccc21` has a reported inhibition at 100 µM of 81

---

# Vd per record follows
Assay: In vivo pharmacokinetics in male CD1 mice
Design: species or system mouse
Details: male, CD1, mouse, plasma, 0.5 mg/kg; Table S6; IV, mice; read-out: VSS (L/kg) IV
Give the number; L/kg is assumed, so skip it.

Look over these answered cases.
1. NC(=O)Cn1c(CCNC(=O)COc2ccccc2)nc2ccccc21 [Compound 28] :: 0.43
2. O=C(COc1ccc2cc(O)ccc2c1)NCCc1nc2ccccc2[nH]1 [Compound 10] :: 1.21
3. O=C(Cn1ccnc1[N+](=O)[O-])NCc1ccccc1 [BZ, benznidazole, reference compound] :: 1.1
4. CC(=O)Nc1ccc(OCC(=O)NCCc2nc3ccccc3[nH]2)cc1 [Compound 2] :: 1.03
5. O=C(COc1ccc2ccc(O)cc2c1)NCCc1nc2ccccc2[nH]1 [Compound 11] :: 1.92

The compound listed as O=C(COc1ccccc1)NCCc1nc2ccccc2[nH]1 [Compound 1] has a reported Vd of 1.02

The compound listed as O=C(COc1cccc([N+](=O)[O-])c1)NCCc1nc2ccccc2[nH]1 [Compound 8] has a reported Vd of 1.04

The compound listed as CC(=O)Nc1cccc(OCC(=O)NCCc2nc3ccccc3[nH]2)c1 [Compound 3] has a reported Vd of 0.45

---

# fu per record follows
Experiment: Fraction unbound by equilibrium dialysis
Type: in vitro ADME
Conditions: Table S5; fraction unbound
Answer with a number only.

1) COc1cccc(C(=O)CCn2c(CCNC(=O)COc3ccc4ccccc4c3Br)nc3ccccc32)c1 [Compound 62] :: 0.02
2) O=C(COc1ccccc1Cl)NCCc1nc2ccccc2[nH]1 [Compound 40] :: 0.86
3) Cc1ccc2[nH]c(CCNC(=O)COc3ccc4ccccc4c3Br)nc2c1 [Compound 54] :: 0.05

Note: attention shifts to another entry.
The compound listed as COc1ccc(C(=O)Cn2c(CCNC(=O)COc3ccc4ccccc4c3Br)nc3ccccc32)cc1 [Compound 63] has a reported fu of 0.02

---

Assay: In vivo pharmacokinetics in male CD1 mice
Set-up: species or system mouse
Settings: mouse, plasma; Table 6; PO 0.5 mg/kg, male CD1 mice; read-out: AUC (ng*h/ml) PO
# AUC per record follows
Give the number; ng·h/mL is assumed, so skip it.

1) O=C(COc1ccccc1Br)NCCc1nc2ccccc2[nH]1 :: 1

The molecule listed as `O=C(COc1ccc(Br)cc1)NCCc1nc2ccccc2[nH]1` has a reported AUC of 56.5

The molecule listed as `O=C(COc1ccccc1[N+](=O)[O-])NCCc1nc2ccccc2[nH]1` has a reported AUC of 1

The molecule listed as `O=C(COc1ccc2ccccc2c1Br)NCCc1nc2ccccc2[nH]1` has a reported AUC of 6.5

The molecule listed as `O=C(COc1ccc2ccccc2c1)NCCc1nc2ccccc2[nH]1` has a reported AUC of 1.7
